Data credit: patent US20050032873A1

Entries and their Emax
- system-name: cloned human 5-HT1A receptors (Homo sapiens)
- Construct: expressed in transfected cells
- Sequence (P08908 whole entry): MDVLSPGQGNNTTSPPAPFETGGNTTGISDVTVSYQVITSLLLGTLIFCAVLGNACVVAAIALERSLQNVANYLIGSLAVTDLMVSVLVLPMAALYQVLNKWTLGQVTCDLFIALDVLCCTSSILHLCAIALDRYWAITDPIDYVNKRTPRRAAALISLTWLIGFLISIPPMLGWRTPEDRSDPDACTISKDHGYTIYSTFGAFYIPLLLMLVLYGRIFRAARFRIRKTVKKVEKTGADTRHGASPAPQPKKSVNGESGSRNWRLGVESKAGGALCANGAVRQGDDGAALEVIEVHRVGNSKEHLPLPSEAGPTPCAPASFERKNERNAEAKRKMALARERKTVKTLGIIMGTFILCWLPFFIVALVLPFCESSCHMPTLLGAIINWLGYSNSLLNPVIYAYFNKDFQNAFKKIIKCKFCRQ
- protocol: 35S-GTPγS binding assay, 5-HT1A function
- Format: biochemical
- condition-description: maximum inhibitory effect, in brackets after IC50; read-out: 5-HT1A Function GTPγS (Imax)
Report as a plain number; the unit % is understood.

// returns reported Emax for input CCCN(CCCc1c[nH]c2ccc(Cl)cc12)C1COc2c(F)ccc(C(N)=O)c2C1 (centres unmarked) [Compound 116] 45

// returns reported Emax for input CC(CCc1c[nH]c2ccc(F)cc12)N(CC1CC1)C1COc2c(F)ccc(C(N)=O)c2C1 (single isomer, unassigned; (-)) [Compound 15a] 100

// returns reported Emax for input CCCN(CCCCc1c[nH]c2ccc(F)cc12)C1COc2c(F)ccc(C(=O)NC)c2C1 (centres unmarked) [Compound 93] 100

// returns reported Emax for input CCCCCN(CCCc1c[nH]c2ccc(F)cc12)C1COc2c(F)ccc(C(N)=O)c2C1 (centres unmarked) [Compound 71] 13

// returns reported Emax for input NC(=O)c1ccc(F)c2c1CC(N(CCCCn1ccc3c(F)cccc31)CC1CC1)CO2 (centres unmarked) [Compound 203] 80

// returns reported Emax for input COc1cccc2c1CC(N(CCCc1c[nH]c3ccc(C#N)cc13)C1CCC1)CO2 (centres unmarked) [Compound 46] 81

// returns reported Emax for input NC(=O)c1ccc(F)c2c1C[C@H](N(CCCCc1c[nH]c3ccc(F)cc13)C1CCC1)CO2 [Compound 83b] 100

// returns reported Emax for input COc1cccc2c(CCN(C3CCC3)C3COc4c(F)ccc(C(N)=O)c4C3)coc12 (centres unmarked) [Compound 159] 25

Continuing:
// returns reported Emax for input COC(=O)c1ccc(F)c2c1C[C@H](N(CCCCc1c[nH]c3ccc(F)cc13)C1CCC1)CO2 [Compound 58a] 25

// returns reported Emax for input NC(=O)c1ccc(F)c2c1CC(N(CCCCc1c[nH]c3ccc(F)cc13)C1CCC1)CO2 (centres unmarked) [Compound 83] 100

// returns reported Emax for input CCNC(=O)c1ccc(F)c2c1CC(N(CCCc1c[nH]c3ccc(F)cc13)C1CCC1)CO2 (centres unmarked) [Compound 60] 100
